These measurements were taken from ChEMBL document CHEMBL3734708.

system: Vaccinia virus; experiment: Antiviral activity against VV Elstree ATCC VR-1549 infected in african green monkey Vero-76 cells after 3 days by plaque reduction assay; assay type: functional, organism-based; settings: Orthopoxvirus vaccinia, Elstree ATCC VR-1549, Vero 76, 72 h
pEC50: −log10 of the molar value.
measured_attribute: pEC50

## Task Would you mind telling me what pEC50 value was observed for "CCn1c(=O)c(-c2ccccc2)nc2c(Cl)c3ncccc3cc21" ?
## Result < 4.22

## Task Would you mind telling me what pEC50 value was observed for "Cn1c(=O)c(Cc2ccccc2)nc2c(Cl)c3ncccc3cc21" ?
## Result < 4.00

## Task Would you mind telling me what pEC50 value was observed for "CCCn1c(=O)c(-c2ccccc2)nc2cc3cccnc3c(Cl)c21" ?
## Result < 4.30

## Task Would you mind telling me what pEC50 value was observed for "O=c1[nH]c2cc3cccnc3c(Cl)c2nc1Cc1ccccc1" ?
## Result < 4.06

## Task Would you mind telling me what pEC50 value was observed for "c1csc(-c2nc3cc4cccnc4cc3n2C2CCCCC2)c1" ?
## Result < 4.82

## Task Would you mind telling me what pEC50 value was observed for "CC(C)c1nc2c(Cl)c3ncccc3cc2n(C)c1=O" ?
## Result < 4.00

## Task Would you mind telling me what pEC50 value was observed for "CC(C)c1nc2c(Cl)c3ncccc3cc2[nH]c1=O" ?
## Result < 4.00

## Task Would you mind telling me what pEC50 value was observed for "N#CCn1c(=O)c(-c2ccccc2)nc2c(Cl)c3ncccc3cc21" ?
## Result < 4.05

## Task Would you mind telling me what pEC50 value was observed for "c1ccc(-c2nc3cc4cccnc4cc3n2C2CCCCC2)cc1" ?
## Result < 4.46

## Task Would you mind telling me what pEC50 value was observed for "COc1nc2cc3cccnc3c(Cl)c2nc1C(C)C" ?
## Result < 4.00

## Task Would you mind telling me what pEC50 value was observed for "O=c1c(-c2ccccc2)nc2cc3cccnc3c(Cl)c2n1CC1CCCCC1" ?
## Result < 4.70

###

For each of the compounds below, state its pEC50.
test system: Vaccinia virus; test: Antiviral activity against VV Elstree ATCC VR-1549 infected in african green monkey Vero-76 cells after 3 days by plaque reduction assay; type: functional, organism-based; details: Orthopoxvirus vaccinia, Elstree ATCC VR-1549, Vero 76, 72 h
pEC50: −log10 of the molar value.

## Task Would you mind telling me what pEC50 value was observed for "O=c1[nH]c2cc3cccnc3c(Cl)c2nc1-c1cccs1" ?
## Result < 4.00

## Task Would you mind telling me what pEC50 value was observed for "CCOc1nc2cc3cccnc3c(Cl)c2nc1-c1ccccc1" ?
## Result < 4.30

## Task Would you mind telling me what pEC50 value was observed for "O=[N+]([O-])c1ccc(COc2nc3cc4cccnc4c(Cl)c3nc2-c2ccccc2)cc1" ?
## Result < 4.00

## Task Would you mind telling me what pEC50 value was observed for "O=c1c(-c2ccccc2)nc2cc3cccnc3c(Cl)c2n1C1CCCCC1" ?
## Result < 4.15

## Task Would you mind telling me what pEC50 value was observed for "O=c1[nH]c2cc3cccnc3c(Cl)c2nc1-c1ccccc1" ?
## Result < 4.00

## Task Would you mind telling me what pEC50 value was observed for "O=c1c(-c2ccccc2)nc2c(Cl)c3ncccc3cc2n1Cc1ccccc1" ?
## Result < 4.05

###

For each of the compounds below, state its EC50.
tested on: Human immunodeficiency virus 1; experiment: Antiviral activity against HIV-1 3B infected in human MT4 cells assessed as protection against virus-induced cytopathic effect after 4 days by MTT assay; type: functional, organism-based; details: Human immunodeficiency virus 1, 3B, MT4, 96 h

## Task Would you mind telling me what EC50 value was observed for "COc1nc2cc3cccnc3c(Cl)c2nc1-c1ccccc1" ?
## Result > 100 µM

## Task Would you mind telling me what EC50 value was observed for "O=c1c(-c2ccccc2)nc2c(Cl)c3ncccc3cc2n1Cc1ccc([N+](=O)[O-])cc1" ?
## Result > 100 µM

## Task Would you mind telling me what EC50 value was observed for "c1ccc(-c2nc3cc4cccnc4cc3n2C2CCCCC2)cc1" ?
## Result > 50 µM

## Task Would you mind telling me what EC50 value was observed for "c1csc(-c2nc3cc4cccnc4cc3n2C2CCCCC2)c1" ?
## Result > 18 µM

## Task Would you mind telling me what EC50 value was observed for "COc1nc2cc3cccnc3c(Cl)c2nc1-c1cccs1" ?
## Result > 100 µM

## Task Would you mind telling me what EC50 value was observed for "O=c1c(Cc2ccccc2)nc2cc3cccnc3c(Cl)c2n1C1CCCCC1" ?
## Result > 34 µM

## Task Would you mind telling me what EC50 value was observed for "CC(C)c1nc2c(Cl)c3ncccc3cc2[nH]c1=O" ?
## Result > 100 µM

## Task Would you mind telling me what EC50 value was observed for "c1ccc(Cc2nc3cc4cccnc4cc3n2CC2CCCCC2)cc1" ?
## Result > 10 µM

## Task Would you mind telling me what EC50 value was observed for "CCn1c(=O)c(-c2ccccc2)nc2c(Cl)c3ncccc3cc21" ?
## Result > 100 µM

## Task Would you mind telling me what EC50 value was observed for "CCCn1c(-c2ccccc2)nc2cc3cccnc3cc21" ?
## Result > 62 µM

## Task Would you mind telling me what EC50 value was observed for "COc1nc2cc3cccnc3c(Cl)c2nc1C(C)C" ?
## Result > 100 µM

## Task Would you mind telling me what EC50 value was observed for "O=c1c(-c2ccccc2)nc2cc3cccnc3c(Cl)c2n1C1CCCCC1" ?
## Result > 48 µM

## Task Would you mind telling me what EC50 value was observed for "Cn1c(=O)c(-c2cccs2)nc2c(Cl)c3ncccc3cc21" ?
## Result > 100 µM

## Task Would you mind telling me what EC50 value was observed for "COc1nc2cc3cccnc3c(Cl)c2nc1Cc1ccccc1" ?
## Result > 100 µM

## Task Would you mind telling me what EC50 value was observed for "Cn1c(=O)c(Cc2ccccc2)nc2c(Cl)c3ncccc3cc21" ?
## Result > 100 µM

## Task Would you mind telling me what EC50 value was observed for "N#CCn1c(=O)c(-c2ccccc2)nc2c(Cl)c3ncccc3cc21" ?
## Result > 100 µM

###

For each of the compounds below, state its CC50 at 96 h.
experiment: Cytotoxicity against human MT4 cells assessed as reduction in cell proliferation after 96 hrs by MTT assay; assay type: cell-based
Give a bare numeral; the unit µM is implied.

## Task Would you mind telling me what CC50 at 96 h value was observed for "CCCn1c(-c2ccccc2)nc2cc3cccnc3cc21" ?
## Result 62

## Task Would you mind telling me what CC50 at 96 h value was observed for "c1csc(-c2nc3cc4cccnc4cc3n2C2CCCCC2)c1" ?
## Result 18

## Task Would you mind telling me what CC50 at 96 h value was observed for "O=c1c(Cc2ccccc2)nc2cc3cccnc3c(Cl)c2n1C1CCCCC1" ?
## Result 34

## Task Would you mind telling me what CC50 at 96 h value was observed for "O=c1c(-c2ccccc2)nc2cc3cccnc3c(Cl)c2n1CC1CCCCC1" ?
## Result 23

###

tested on: Vaccinia virus; assay: Antiviral activity against VV Elstree ATCC VR-1549 infected in african green monkey Vero-76 cells after 3 days by plaque reduction assay; format: functional, organism-based; details: Orthopoxvirus vaccinia, Elstree ATCC VR-1549, Vero 76, 72 h
pEC50: −log10 of the molar value.
For each of the compounds below, state its pEC50.

## Task Would you mind telling me what pEC50 value was observed for "COc1nc2cc3cccnc3c(Cl)c2nc1-c1cccs1" ?
## Result < 4.00

## Task Would you mind telling me what pEC50 value was observed for "COc1nc2cc3cccnc3c(Cl)c2nc1-c1ccccc1" ?
## Result < 4.00

## Task Would you mind telling me what pEC50 value was observed for "COc1nc2cc3cccnc3c(Cl)c2nc1Cc1ccccc1" ?
## Result < 4.00

## Task Would you mind telling me what pEC50 value was observed for "O=c1c(Cc2ccccc2)nc2cc3cccnc3c(Cl)c2n1C1CCCCC1" ?
## Result < 4.70

## Task Would you mind telling me what pEC50 value was observed for "Nc1ccn(C[C@@H](CO)OCP(=O)(O)O)c(=O)n1" ?
## Result 4.72

## Task Would you mind telling me what pEC50 value was observed for "c1ccc(Cc2nc3cc4cccnc4cc3n2CC2CCCCC2)cc1" ?
## Result < 4.60

## Task Would you mind telling me what pEC50 value was observed for "O=c1c(-c2cccs2)nc2cc3cccnc3c(Cl)c2n1C1CCCCC1" ?
## Result < 4.00

## Task Would you mind telling me what pEC50 value was observed for "Cn1c(=O)c(-c2ccccc2)nc2c(Cl)c3ncccc3cc21" ?
## Result < 4.00

## Task Would you mind telling me what pEC50 value was observed for "CCCn1c(-c2ccccc2)nc2cc3cccnc3cc21" ?
## Result < 4.05

## Task Would you mind telling me what pEC50 value was observed for "O=c1c(-c2ccccc2)nc2c(Cl)c3ncccc3cc2n1Cc1ccc([N+](=O)[O-])cc1" ?
## Result < 4.00

## Task Would you mind telling me what pEC50 value was observed for "Cn1c(=O)c(-c2cccs2)nc2c(Cl)c3ncccc3cc21" ?
## Result < 4.00
